# targetEntity: HLA-A*26:01
# assayDetails: IEDB peptide-MHC binding, purified MHC/direct/fluorescence; filed as Kd, often an IC50 or EC50 that approximates it; bounds were set here for any values at or beyond the usual limits of such assays
# testParameters: source organism: Mycobacterium tuberculosis str. Haarlem
pKd: −log10 of the molar value.
metric: pKd

Per the records, this sequence ( `WEITYLGTT` ) has pKd equal to ≤ 4.70

* * *

# targetEntity: HLA-A*11:01
# assayDetails: IEDB peptide-MHC binding, purified MHC/direct/fluorescence; filed as Kd, often an IC50 or EC50 that approximates it; bounds were set here for any values at or beyond the usual limits of such assays
# testParameters: source organism: Yersinia enterocolitica
metric: Kd (nM)
Numbers only, in nM.

So the reported Kd for `TVWNRLIAR` , on HLA-A*11:01, turned out to be 32.6

* * *

# targetEntity: HLA-A*02:01
# assayDetails: IEDB peptide-MHC binding, purified MHC/competitive/radioactivity; filed as Kd, often an IC50 or EC50 that approximates it; bounds were set here for any values at or beyond the usual limits of such assays
# testParameters: source organism: Dengue virus 3 China/80-2/1980
metric: pKd
Answers are plain numbers, as −log10 of the molar value.

So the reported pKd for `LLLMRTSWAL` , on HLA-A*02:01, turned out to be 8.26

* * *

# targetEntity: HLA-A*02:19
# assayDetails: IEDB peptide-MHC binding, purified MHC/competitive/fluorescence; filed as Kd, often an IC50 or EC50 that approximates it; bounds were set here for any values at or beyond the usual limits of such assays
# testParameters: source organism: Giardia lamblia ATCC 50803
metric: Kd

So the reported Kd for `TELPLAYER` , on HLA-A*02:19, turned out to be ≥ 20 µM

* * *

# targetEntity: HLA-B*57:01
# assayDetails: IEDB peptide-MHC binding, purified MHC/competitive/radioactivity; filed as Kd, often an IC50 or EC50 that approximates it; bounds were set here for any values at or beyond the usual limits of such assays
# testParameters: source organism: Dengue virus 4 Philippines/H241/1956
metric: Kd

macromoleculeSequence	Kd
ATGPVLTLW	2.48 nM

Now let's try a different one.
Per the records, this sequence ( `LTSLGKAVHQ` ) has Kd equal to ≥ 70400 nM

* * *

# targetEntity: HLA-B*54:01
# assayDetails: IEDB peptide-MHC binding, purified MHC/competitive/radioactivity; filed as Kd, often an IC50 or EC50 that approximates it; bounds were set here for any values at or beyond the usual limits of such assays
# testParameters: source organism: Vaccinia virus WR
metric: pKd
Give bare numbers, as −log10 of the molar value.

Required: pKd, one value per sequence below.
1. KVFSFWLLCK
2. RPTPKKMNIV
3. LPRVVGGKTV

5.59
5.23
7.41

* * *

# targetEntity: HLA-A*69:01
# assayDetails: IEDB peptide-MHC binding, purified MHC/direct/fluorescence; filed as Kd, often an IC50 or EC50 that approximates it; bounds were set here for any values at or beyond the usual limits of such assays
# testParameters: source organism: Encephalitozoon cuniculi GB-M1
metric: Kd

Per the records, this sequence ( `RNMSRIFPY` ) has Kd equal to ≥ 20 µM

* * *

# targetEntity: HLA-B*35:01
# assayDetails: IEDB peptide-MHC binding, purified MHC/competitive/fluorescence; filed as Kd, often an IC50 or EC50 that approximates it; bounds were set here for any values at or beyond the usual limits of such assays
# testParameters: source organism: Influenza A virus (A/duck/Hong Kong/3096/99(H6N2))
metric: Kd (µM)
Numbers only, in µM.

Per the records, this sequence ( `TMLYNKMEF` ) has Kd equal to 1.26
